B1: TRIM39 (parent)
chain: ERDFPCPVCRKTSRYRSLRPNRQL

Variants of: B1
assay-info: protein stability index of a GFP-peptide fusion (GPS, HEK-293T) (PSI 1-6); higher = more stable;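 also: lentivirally expressed fusions sorted by FACS into six bins by GFP to DsRed ratio, PSI derived from sequencing read proportions per bin multiplied by bin number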
assay-context: c terminus: a fixed tail appended
Group membership follows protein stability index per the scheme low interval = under 2, middle interval = from 2 up to 3, high interval = 3 and over

Some solved entries appear below for comparison.
- variant-annotation: "E1V"
  class-name: "middle interval"
- variant-annotation: "E1Q"
  class-name: "middle interval"
- variant-annotation: "T12F"
  class-name: "middle interval"
- variant-annotation: "E1R"
  class-name: "middle interval"
- variant-annotation: "R2H"
  class-name: "middle interval"

Challenge: The entry to classify is C9M ; which class holds it?
Response given: high interval

Challenge: Can you check R22S next?
Response given: low interval

Challenge: Can you check T12I next?
Response given: low interval

Challenge: Can you check R10M next?
Response given: middle interval

Challenge: Can you check R22M next?
Response given: middle interval

Challenge: Can you check R10L next?
Response given: middle interval

Challenge: Can you check R10S next?
Response given: low interval

Challenge: Can you check C9I next?
Response given: high interval

Challenge: Can you check V8K next?
Response given: middle interval

Challenge: Can you check R22E next?
Response given: middle interval
